Experimental System: SARS CoV-2 M^pro (Severe acute respiratory syndrome coronavirus 2)
Assay type: cell-based

# Molecule, result in FlipGFP assay (in words)
records = [
    ("CCC(C)SSc1ncc[nH]1 (centres unmarked)", "no inhibitory activity"),
    ("O=c1sn(-c2cccc3ccccc23)c(=O)n1Cc1ccccc1", "no inhibitory activity"),
]

###

Experimental System: SARS CoV-2 M^pro (Severe acute respiratory syndrome coronavirus 2)
Assay type: biochemical
Assay Metric: result in Protease-Glo luciferase assay (in words)

# Molecule, Result
rows = [
    ("CC(C)=CC[C@@H](O)C1=CC(=O)c2c(O)ccc(O)c2C1=O [shikonin]", "no inhibition"),
    ("CCCCCCNC(=O)n1cc(F)c(=O)[nH]c1=O [carmofur]", "no inhibitory activity"),
    ("Cc1cccc(C)c1OCC(=O)N[C@@H](Cc1ccccc1)[C@@H](O)C[C@H](Cc1ccccc1)NC(=O)[C@H](C(C)C)N1CCCNC1=O [lopinavir]", "not active"),
    ("CCC(C)SSc1ncc[nH]1 (stereo not shown) [PX-12]", "no inhibitory activity"),
    ("O=c1c2ccccc2[se]n1-c1ccccc1 [ebselen]", "no inhibition"),
]

Lab note: need result in Protease-Glo luciferase assay (in words) with SARS CoV-2 M^pro (Severe acute respiratory syndrome coronavirus 2) for entry CCN(CC)C(=S)SSC(=S)N(CC)CC [disulfiram] , please look it up.
no inhibition

Lab note: need result in Protease-Glo luciferase assay (in words) with SARS CoV-2 M^pro (Severe acute respiratory syndrome coronavirus 2) for entry CC(C)c1nc(CN(C)C(=O)N[C@H](C(=O)N[C@@H](Cc2ccccc2)C[C@H](O)[C@H](Cc2ccccc2)NC(=O)OCc2cncs2)C(C)C)cs1 [ritonavir] , please look it up.
not active

Lab note: need result in Protease-Glo luciferase assay (in words) with SARS CoV-2 M^pro (Severe acute respiratory syndrome coronavirus 2) for entry O=c1sn(-c2cccc3ccccc23)c(=O)n1Cc1ccccc1 [tideglusib] , please look it up.
no inhibitory activity

Lab note: need result in Protease-Glo luciferase assay (in words) with SARS CoV-2 M^pro (Severe acute respiratory syndrome coronavirus 2) for entry O=c1cc(-c2ccccc2)oc2cc(O)c(O)c(O)c12 [baicalein] , please look it up.
no inhibition
